Listed here: items and their measured pIC50.
Target: BRD4 (Homo sapiens)
Assay: Time Resolved Fluorescence Resonance Energy Transfer (TR-FRET) binding assay, FRET BRD4
Settings: one of the FRET assays described (BRD4 bromodomain construct not specified); read-out: FRET BRD4 IC50
pIC50: −log10 of the molar value.

- COMPOUND: "Cc1nnn(C)c1-c1cnc2c3cc(N4CCNCC4)ccc3n([C@H](c3ccccc3)C3CCOCC3)c2c1 [Example 13]"
  pIC50: "> 8.30"

Query block: I would be grateful if you could share the reported pIC50 for Cc1nnn(C)c1-c1cnc2c3ccc(N4CCC(C(F)(F)F)CC4)cc3n([C@H](c3ccccc3)C3CCOCC3)c2c1 [Example 72] .
Result block: > 9.00

Query block: Which measured pIC50 value corresponds to [2H]C([2H])([2H])c1nnn(C)c1-c1cnc2c3c(N4CCCS4(=O)=O)ccc(S(C)(=O)=O)c3n([C@]([2H])(c3ccccc3)C3CCOCC3)c2c1 [Example 38] ?
Result block: > 8.30

Query block: Entry [2H]C([2H])([2H])c1nnn(C)c1-c1cnc2c3c(N4CCC(F)(F)CC4)ccc(S(C)(=O)=O)c3n(C(c3ccccc3)C3CCC(F)(F)CC3)c2c1 (stereo not drawn) [Example 73] has what pIC50?
Result block: > 5.82

Query block: // lookup pIC50 for Cc1nnn(C)c1-c1cnc2c3c(N4CCN(C5COC5)CC4)ccc(S(C)(=O)=O)c3n([C@H](c3ccccc3)C3CCOCC3)c2c1 [Example 23]
Result block: > 8.30

Query block: Looking for the measured pIC50 of [2H]C([2H])([2H])c1nnn(C)c1-c1cnc2c3ccc(C4(O)CCNCC4)c(F)c3n([C@H](c3ccccc3)C3CCOCC3)c2c1 [Example 53] , can you help?
Result block: > 9.00
